Recorded measurements of AUC(0-t), one per entry
- measurement_notes: Pharmacokinetics of flumatinib and M1 in SD rats with or without isavuconazole
- Assay type: in vivo, Sprague-Dawley male rats
- experimental_context: male, Sprague-Dawley, rat, plasma, po, 60 mg/kg, group B: 20 mg/kg isavuconazole and 60 mg/kg flumatinib dosed orally
Dear colleague, please return just the value in ng·h/mL, with no unit written.

[[record]]
compound_structure = "Cc1ncc(NC(=O)c2ccc(CN3CCNCC3)c(C(F)(F)F)c2)cc1Nc1nccc(-c2cccnc2)n1"
measurement_kind = "AUC(0-t)"
quantitative_readout = 352


Please look at this molecule and report its AUC(0-t): Cc1ncc(NC(=O)c2ccc(CN3CCN(C)CC3)c(C(F)(F)F)c2)cc1Nc1nccc(-c2cccnc2)n1 4730

====

- test_system: UniProt P08684
- Sequence (P08684 2-503): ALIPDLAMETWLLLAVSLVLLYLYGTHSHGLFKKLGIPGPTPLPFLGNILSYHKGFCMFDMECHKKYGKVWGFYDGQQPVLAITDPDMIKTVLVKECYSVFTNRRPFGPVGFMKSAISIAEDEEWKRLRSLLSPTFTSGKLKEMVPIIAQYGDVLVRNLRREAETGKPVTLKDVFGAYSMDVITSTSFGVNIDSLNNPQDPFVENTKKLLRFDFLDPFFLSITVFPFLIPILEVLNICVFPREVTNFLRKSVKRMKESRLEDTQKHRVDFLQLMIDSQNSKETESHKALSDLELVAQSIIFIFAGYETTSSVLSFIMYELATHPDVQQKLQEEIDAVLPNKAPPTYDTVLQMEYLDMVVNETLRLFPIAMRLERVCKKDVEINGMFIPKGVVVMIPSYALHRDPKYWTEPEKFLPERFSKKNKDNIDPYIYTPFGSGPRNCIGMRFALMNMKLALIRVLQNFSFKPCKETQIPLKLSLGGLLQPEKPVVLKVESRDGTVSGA
- measurement_notes: Inhibition of flumatinib metabolism in human liver microsome incubation (UPLC-MS/MS)
Recorded measurements of IC50 at 40 min, one per entry
Dear colleague, please return just the value in µM, with no unit written.

Worked examples, 2 molecules total:
[[record]]
molecule = "OC(Cn1cncn1)(Cn1cncn1)c1ccc(F)cc1F"
test_system = "UniProt P08684"
measurement_kind = "IC50 at 40 min"
quantitative_readout = 92.6

[[record]]
molecule = "C[C@@H](c1ncncc1F)[C@](O)(Cn1cncn1)c1ccc(F)cc1F"
test_system = "UniProt P08684"
measurement_kind = "IC50 at 40 min"
quantitative_readout = 325


Please look at this molecule and report its IC50 at 40 min: CCC(C)n1ncn(-c2ccc(N3CCN(c4ccc(OCC5COC(Cn6cncn6)(c6ccc(Cl)cc6Cl)O5)cc4)CC3)cc2)c1=O (stereo not drawn) 11.6

====

- measurement_notes: Pharmacokinetics of flumatinib and M1 in SD rats with or without isavuconazole
- Type: in vivo, Sprague-Dawley male rats
- experimental_context: male, Sprague-Dawley, rat, plasma, po, 60 mg/kg, group A: 60 mg/kg flumatinib dosed orally alone
measurement_kind: half-life (h)
Dear colleague, please return just the value in h, with no unit written.

[[record]]
compound = "Cc1ncc(NC(=O)c2ccc(CN3CCN(C)CC3)c(C(F)(F)F)c2)cc1Nc1nccc(-c2cccnc2)n1 [flumatinib]"
measurement_kind = "half-life"
quantitative_readout = 4.04


Please look at this compound and report its half-life: Cc1ncc(NC(=O)c2ccc(CN3CCNCC3)c(C(F)(F)F)c2)cc1Nc1nccc(-c2cccnc2)n1 [M1, N-desmethyl flumatinib] 5.28

====

- measurement_notes: Pharmacokinetics of flumatinib and M1 in SD rats with or without isavuconazole
- Format: in vivo, Sprague-Dawley male rats
- experimental_context: male, Sprague-Dawley, rat, plasma, po, 60 mg/kg, group A: 60 mg/kg flumatinib dosed orally alone
measurement_kind: Cmax (ng/mL)
Dear colleague, please return just the value in ng/mL, with no unit written.

[[record]]
compound_structure = "Cc1ncc(NC(=O)c2ccc(CN3CCNCC3)c(C(F)(F)F)c2)cc1Nc1nccc(-c2cccnc2)n1"
quantitative_readout = 19.9


Please look at this compound and report its Cmax: Cc1ncc(NC(=O)c2ccc(CN3CCN(C)CC3)c(C(F)(F)F)c2)cc1Nc1nccc(-c2cccnc2)n1 282

====

- measurement_notes: Pharmacokinetics of flumatinib and M1 in SD rats with or without isavuconazole
- Assay type: in vivo, Sprague-Dawley male rats
- experimental_context: male, Sprague-Dawley, rat, plasma, po, 60 mg/kg, group B: 20 mg/kg isavuconazole and 60 mg/kg flumatinib dosed orally
measurement_kind: half-life (h)
Dear colleague, please return just the value in h, with no unit written.

[[record]]
compound = "Cc1ncc(NC(=O)c2ccc(CN3CCN(C)CC3)c(C(F)(F)F)c2)cc1Nc1nccc(-c2cccnc2)n1 [flumatinib]"
quantitative_readout = 4.88


--- query ---
Please look at this compound and report its half-life: Cc1ncc(NC(=O)c2ccc(CN3CCNCC3)c(C(F)(F)F)c2)cc1Nc1nccc(-c2cccnc2)n1 [M1, N-desmethyl flumatinib] 7.29
